# subject_of_test: human carbonic anhydrase 2 (wild-type hCAII) (Homo sapiens, UniProt P00918 4-259)
# assay_comment: cell-based or functional assay
* marks the point of attachment. Benzoyl(4-SO2NH2) = NS(=O)(=O)c1ccc(C(=O)*)cc1
IC50 (µM), hCAII functional assay (p-nitrophenyl acetate hydrolysis) values for the binders below.
outcome_measure: IC50 (µM), hCAII functional assay (p-nitrophenyl acetate hydrolysis)

INSERT INTO results (binder, output_unit, value) VALUES
  ('{Benzoyl(4-SO2NH2)}-AFAAE-NH2 (SMILES C[C@H](NC(=O)c1ccc(S(N)(=O)=O)cc1)C(=O)N[C@@H](Cc1ccccc1)C(=O)N[C@@H](C)C(=O)N[C@@H](C)C(=O)N[C@@H](CCC(=O)O)C(N)=O) [(SAB)AFAAE]', 'µM', 0.183),
  ('{Benzoyl(4-SO2NH2)}-SAAAE-NH2 (SMILES C[C@H](NC(=O)[C@H](C)NC(=O)[C@H](CO)NC(=O)c1ccc(S(N)(=O)=O)cc1)C(=O)N[C@@H](C)C(=O)N[C@@H](CCC(=O)O)C(N)=O) [(SAB)SAAAE]', 'µM', 0.153);
